Assay: protection against mutant huntingtin cytotoxicity, PC12 cells, LDH release (AID 1610)
Conditions: PC12 mutant huntingtin toxicity, final LDH at 4 uM, stronger effect = lower value
Results filed as inconclusive are left out.
property measured: normalised LDH release
Give bare numbers.

The examples below pair each entry with its known result.
The compound listed as `O=c1[nH]c2ccccc2n1C1CCN(CCCC(c2ccc(F)cc2)c2ccc(F)cc2)CC1` shows normalised LDH release equal to 0.918

The compound listed as CCCCCc1cc(O)c2c(c1)OC(C)(C)C1CCC(C)=CC21 (centres undefined) shows normalised LDH release equal to 0.893

The compound listed as `C[C@@H]1C[C@@H]([C@H](O)CC2CC(=O)NC(=O)C2)C(=O)[C@@H](C)C1` shows normalised LDH release equal to 0.469

New cases:
The compound listed as `CN(C)[C@@H]1C(=O)C(C(N)=O)=C(O)[C@@]2(O)C(=O)C3=C(O)c4c(O)cccc4[C@@](C)(O)[C@H]3[C@H](O)[C@@H]12` shows normalised LDH release equal to 0.818

----------
Test: stimulators of nuclear beta-catenin in C2C12, primary screen, imaging, WNT3A-conditioned medium, mouse C2C12, NPC library (AID 1117326)
Conditions: stimulation, at 2 µM, stronger effect = higher value
property measured: nuclear beta-catenin stimulation (%)
One number for each entry, in %.

The examples below pair each entry with its known result.
The compound listed as `CCOC(=O)C(c1c(O)c2ccccc2oc1=O)c1c(O)c2ccccc2oc1=O` shows nuclear beta-catenin stimulation equal to -0.6

The compound listed as `NCCc1ccc(O)cc1` shows nuclear beta-catenin stimulation equal to 1.3

The compound listed as `NNc1ccccc1` shows nuclear beta-catenin stimulation equal to 2.4

The compound listed as `COc1cc(CC#N)cc(OC)c1OC` shows nuclear beta-catenin stimulation equal to 1.2

The compound listed as `COP(=S)(OC)Oc1cc(Cl)c(Cl)cc1Cl` shows nuclear beta-catenin stimulation equal to -0.1

Hello, I would appreciate it if you could give nuclear beta-catenin stimulation for each entry below.
1. C1CCC(NC2CCCCC2)CC1
2. CCC1(c2ccc(N)cc2)CCC(=O)NC1=O (stereo unspecified)
3. O=C(O)c1ccc(=O)[nH]c1
4. NCC(O)c1cccc(O)c1 (stereo unspecified)
5. CCN(CC)CCOC(=O)C(C)(c1ccccc1)c1ccccc1

[2, -0.3, 0.8, 0.5, 0.8]

----------
Exercise: state measured z-score for each of the molecules provided.
Assay: survival rescue of mitochondrial mutant cells in low glucose, primary screen, MELAS cybrids, Rieske KO mouse fibroblasts, CellTiter-Glo (AID 1508586);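 further: z relative to plate mean and SD of compound and empty wells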
Conditions: MELAS cybrid survival, CellTiter-Glo 48 h, stronger effect = higher value
Give bare numbers.

The examples below pair each entry with its known result.
The molecule listed as Cc1ccc(-n2nccn2)c(C(=O)N2CCN(c3nc4cc(Cl)ccc4o3)CCC2C)c1 (centres undefined) shows z-score equal to -0.269

The molecule listed as `O=C(O)c1nn(Cc2ccc(Cl)cc2Cl)c2ccccc12` shows z-score equal to -0.0995

The molecule listed as Cc1c(N)nc(C(CC(N)=O)NCC(N)C(N)=O)nc1C(=O)NC(C(=O)NC(C)C(O)C(C)C(=O)NC(C(=O)NCCc1nc(-c2nc(C(=O)NCCC[S+](C)C)cs2)cs1)C(C)O)C(OC1OC(CO)C(O)C(O)[C@H]1OC1OC(CO)C(O)C(OC(N)=O)C1O)c1cnc[nH]1 (some centres undefined) shows z-score equal to -0.352

The molecule listed as `Cc1nc(-c2ccccn2)nc(NCCc2ccccc2)c1Cl` shows z-score equal to -0.0148

The molecule listed as `COc1ccc(CN2CCNCC2)c(OC)c1OC` shows z-score equal to 0.315

The molecule listed as `C=C1C[C@@H]2[C@@H](CC[C@@]3(C)C(=O)CC[C@@H]23)[C@@]2(C)C=CC(=O)C=C12` shows z-score equal to -0.495

Hello, I would appreciate it if you could give z-score for each entry below.
1. Cc1cc(O)ccc1Cl
2. CCN[C@@H](C)Cc1cccc(C(F)(F)F)c1

-0.196
-1.11

----------
Experiment: inhibition of 3D7 malaria parasite growth – strain 3D7 (AID 2306);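 further: 0% = DMSO wells and 100% = chloroquine plus artemisinin control wells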
Details: P. falciparum 3D7 erythrocytic growth, LDH absorbance, 72 h; at 2 µM; stronger effect = higher value
Exercise: state measured growth inhibition for each of the molecules provided.
Numbers only, in %.

The examples below pair each entry with its known result.
The molecule listed as O=C(/C=C/c1ccc(Cl)c(Cl)c1)NC1CCC(CN2CC[C@H](c3c[nH]c4ccccc34)[C@@H](O)C2)CC1 (stereo not given in full) shows growth inhibition equal to 101

The molecule listed as COc1ccc(CC(C)NCC(O)c2cccc(C(F)(F)F)c2)cc1F (stereo not given) shows growth inhibition equal to 91

The molecule listed as `CCOC(C(=O)OCCN(C(C)C)C(C)C)(c1ccccc1)c1ccccc1` shows growth inhibition equal to 97

The molecule listed as `c1ccc2c(NCCCCCCNc3c4c(nc5ccccc35)CCCC4)c3c(nc2c1)CCCC3` shows growth inhibition equal to 100

The molecule listed as `COc1ccc2c(c1)[nH]c1c(C=Cc3ccccc3)nccc12` shows growth inhibition equal to 91

Hello, I would appreciate it if you could give growth inhibition for each entry below.
1. COc1ccccc1CNCC(O)c1cc(C(F)(F)F)ccc1C(F)(F)F (stereo not given)
2. O=C(CCCCCc1ccccc1)NC1CCC(CN2CCC(c3c[nH]c4ccccc34)CC2)CC1 (stereo not given)

101
86

Hello, I would appreciate it if you could give growth inhibition for each entry below.
1. CCOC(C(=O)OCC1CCCN(C)C1)(c1ccccc1)c1ccccc1 (stereo not given)
2. CC(Cc1ccc(OCc2ccccc2)cc1)NCC(O)c1cccc(Cl)c1 (stereo not given)
3. CC(=O)N(Cc1cccc(-c2cccc(CNCCc3ccccc3)c2)c1)C1CCN(Cc2ccccc2)CC1

1. 98
2. 99
3. 100

----------
Assay: ovarian cancer cell viability with rucaparib, profiling panel, oncology-focused library, rucaparib conditional (AID 1508598)
Conditions: patient-derived ovarian cancer cells, CellTiter-Glo viability, 144 h; at 1.25 µM; OCI-C5x cells; without rucaparib; stronger effect = lower value
property measured: viability (%)
Answers are plain numbers, in %.

Hello, I would appreciate it if you could give viability for each entry below.
1. C/C(=C\c1csc(C)n1)[C@H]1C[C@@H]2O[C@@H]2CCC[C@H](C)[C@H](O)[C@@H](C)C(=O)C(C)(C)[C@H](O)CC(=O)O1
2. O=S(=O)(CC1CS1)c1ccc(Oc2ccccc2)cc1 (centres undefined)
3. Cn1cc(C2=C(c3cn(C4CCN(Cc5ccccn5)CC4)c4ccccc34)C(=O)NC2=O)c2ccccc21

[24.3, 111, 156]

The compound listed as Cc1c(N)nc([C@H](CC(N)=O)NC[C@@H](N)C(N)=O)nc1C(=O)N[C@H](C(=O)N[C@@H](C)[C@H](O)[C@@H](C)C(=O)N[C@@H](C(=O)NCCc1nc(-c2nc(C(=O)NCCC[S+](C)C)cs2)cs1)[C@@H](C)O)C(O[C@H]1O[C@H](CO)[C@H](O)[C@@H](O)[C@H]1O[C@H]1O[C@H](CO)[C@@H](O)[C@H](OC(N)=O)[C@@H]1O)c1cnc[nH]1 (some centres undefined) shows viability equal to 69.9

----------
Experiment: CellTiter-Glo luminescent readout of SW480 viability loss, NPC library primary (AID 1117343)
Conditions: CellTiter-Glo luminescence; at 20 µM (top of the series)
Active and inactive are the calls of the source.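 How the source made its calls: active means compounds that lower viability of the colon cancer cells in the luminescence readout, with no numeric limit stated; inactive means the rest.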
Exercise: state measured viability decrease (inhibition) for each of the molecules provided.

The molecule listed as `C#CCN(C)[C@H](C)Cc1ccccc1` shows viability decrease (inhibition) equal to 10.9% (inactive)

The molecule listed as `CCN(CC)CCOC(=O)C(O)(c1ccccc1)c1ccccc1` shows viability decrease (inhibition) equal to -15.1% (inactive)

The molecule listed as `CCOC(=O)C(c1c(O)c2ccccc2oc1=O)c1c(O)c2ccccc2oc1=O` shows viability decrease (inhibition) equal to -18.7% (inactive)

The molecule listed as CCC1(c2ccc(N)cc2)CCC(=O)NC1=O (stereo unspecified) shows viability decrease (inhibition) equal to 45.3% (inactive)

The molecule listed as `Nc1ccncc1` shows viability decrease (inhibition) equal to 11.9% (active)

Hello, I would appreciate it if you could give viability decrease (inhibition) for each entry below.
1. Clc1cccc(SC2CCNCC2)n1
2. NCCc1cc(O)c(O)cc1O
3. CCOP(=S)(OCC)O/N=C(\C#N)c1ccccc1
4. CC1(C)C(C=C(Cl)Cl)C1C(=O)OC(C#N)c1cccc(Oc2ccccc2)c1 (stereo unspecified)
5. O=c1[nH]c2ccccc2n1C1CCNCC1
6. C#C[C@]1(O)C=C[C@H]2[C@@H]3CCC4=CC(=O)CC[C@@H]4[C@H]3CC[C@@]21CC

17.2% (inactive)
142% (active)
36.2% (inactive)
27.7% (inactive)
-13.1% (inactive)
-18.5% (inactive)

Hello, I would appreciate it if you could give viability decrease (inhibition) for each entry below.
1. Oc1cccc2cccnc12
2. NCCC[C@H](N)C(=O)O
3. CC(C)=CC1C(C(=O)OCc2cccc(Oc3ccccc3)c2)C1(C)C (stereo unspecified)
4. CC(C)NC(C)C
5. CCCCC/C=C\C/C=C\C/C=C\C/C=C\CCCC(=O)NCC(=O)O

1. 68.4% (active)
2. 98.1% (active)
3. 16.2% (inactive)
4. 2.1% (inactive)
5. 145% (active)
